Documented pEC50 across a set of compounds
# Tested on: 280 human cancer cell lines
# Protocol details: OncoPanel cell proliferation assay (10-day)
# Assay type: cell-based
# Settings: Homo sapiens, FaDu, Head and Neck; read-out: Cell Count EC50
Scale: pEC50 equals -log10([C]), with [C] in mol/L.

// solved cases for pEC50 follow
>>> df
                                   compound  value
0  CC(C)=CCC[C@H](C)[C@@H]1CC[C@@H](C)c2c1cc(C)c(O)c2O [Compound 4, 7,8-dihydroxyserrulat-14-ene]   5.08
1  CC(C)=CCC[C@@H]1C(O)Oc2c(C)cc(O)c3c2[C@H]1CC[C@H]3C (stereo partly drawn)   5.06

*Q* Consider the compound CC(C)=CCC[C@H](CO)[C@@H]1CC[C@@H](C)c2c1cc(C)c(O)c2O [Compound 1, 7,8,18-trihydroxyserrulat-14-ene] and give its recorded pEC50.
*A* 6.06
